- System under test: TRPML2 (Homo sapiens)
- Construct: expressed in transfected cells
- Sequence (Q8IZK6 whole entry): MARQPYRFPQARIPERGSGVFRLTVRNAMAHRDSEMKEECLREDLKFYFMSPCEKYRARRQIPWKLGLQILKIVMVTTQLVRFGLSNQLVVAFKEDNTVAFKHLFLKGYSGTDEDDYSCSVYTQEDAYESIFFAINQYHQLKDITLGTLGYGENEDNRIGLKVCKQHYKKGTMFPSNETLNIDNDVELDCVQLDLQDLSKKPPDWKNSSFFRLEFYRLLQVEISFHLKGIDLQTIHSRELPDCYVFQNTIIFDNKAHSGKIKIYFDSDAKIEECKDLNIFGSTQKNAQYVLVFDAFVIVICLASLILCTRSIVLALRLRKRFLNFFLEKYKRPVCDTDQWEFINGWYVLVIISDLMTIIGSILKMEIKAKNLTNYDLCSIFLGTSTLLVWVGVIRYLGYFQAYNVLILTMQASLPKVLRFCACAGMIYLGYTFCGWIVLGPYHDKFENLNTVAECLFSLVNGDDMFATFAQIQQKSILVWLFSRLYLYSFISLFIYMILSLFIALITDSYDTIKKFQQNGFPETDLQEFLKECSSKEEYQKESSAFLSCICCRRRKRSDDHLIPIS
- Assay notes: Fluorescent TRPML2 assay (performed as for TRPML1, substituting the TRPML2 subtype)
- Assay type: cell-based
- Condition summary: fluorescent calcium assay
pEC50: −log10 of the molar value.
Property label: pEC50

> print(dat)
                                 mol.smiles    data.value
1  C[C@H]1CN(C(=O)OC(C)(C)C)CCN1c1ncnc2c1c(N1CCC(C)(C)C1)cn2-c1cc(C#N)ccn1        > 7.00
2  Cc1cc(C#N)cc(-n2cc(C3CC3)c3c(N4CCN(C(=O)OC(C)(C)C)C[C@@H]4C)ncnc32)n1  5.70 to 6.30
3  C[C@@H]1CN(c2ncnc3c2c(N2CCC[C@H]2C)cn3-c2cccc(Cl)c2)CCN1C(=O)OC(C)(C)C        < 5.70
4  C[C@H]1CN(C(=O)OC(C)(C)C)CCN1c1ncnc2c1c(-c1ccccc1F)cn2-c1nc(C#N)cs1  5.70 to 6.30
5  C[C@@H]1CN(c2ncnc3c2c(C2CC2)cn3-c2cncc(C(F)(F)F)c2)[C@@H](C)CN1C(=O)OC(C)(C)C  5.70 to 6.30
6  C[C@H]1CN(C(=O)OC(C)(C)C)CCN1c1ncnc2c1c(-c1ccccn1)cn2-c1cccc(Cl)c1  6.30 to 7.00
7  C[C@H]1CN(C(=O)OC(C)(C)C)CCN1c1ncnc2c1c(-c1ccccn1)cn2-c1ccc(F)c(Cl)c1        > 7.00
